The reported measurements were obtained from paper PMC4336329.

molecular target: human ether-à-go-go-related gene (hERG) potassium channel (human, UniProt Q12809); experiment: primary screen, population patch clamp on CHO cells stably expressing hERG; higher = less effect of the substance;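 also: peak tail current of the secondary pulse compared with the same well before compound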
Sequence (Q12809 whole entry, looked up): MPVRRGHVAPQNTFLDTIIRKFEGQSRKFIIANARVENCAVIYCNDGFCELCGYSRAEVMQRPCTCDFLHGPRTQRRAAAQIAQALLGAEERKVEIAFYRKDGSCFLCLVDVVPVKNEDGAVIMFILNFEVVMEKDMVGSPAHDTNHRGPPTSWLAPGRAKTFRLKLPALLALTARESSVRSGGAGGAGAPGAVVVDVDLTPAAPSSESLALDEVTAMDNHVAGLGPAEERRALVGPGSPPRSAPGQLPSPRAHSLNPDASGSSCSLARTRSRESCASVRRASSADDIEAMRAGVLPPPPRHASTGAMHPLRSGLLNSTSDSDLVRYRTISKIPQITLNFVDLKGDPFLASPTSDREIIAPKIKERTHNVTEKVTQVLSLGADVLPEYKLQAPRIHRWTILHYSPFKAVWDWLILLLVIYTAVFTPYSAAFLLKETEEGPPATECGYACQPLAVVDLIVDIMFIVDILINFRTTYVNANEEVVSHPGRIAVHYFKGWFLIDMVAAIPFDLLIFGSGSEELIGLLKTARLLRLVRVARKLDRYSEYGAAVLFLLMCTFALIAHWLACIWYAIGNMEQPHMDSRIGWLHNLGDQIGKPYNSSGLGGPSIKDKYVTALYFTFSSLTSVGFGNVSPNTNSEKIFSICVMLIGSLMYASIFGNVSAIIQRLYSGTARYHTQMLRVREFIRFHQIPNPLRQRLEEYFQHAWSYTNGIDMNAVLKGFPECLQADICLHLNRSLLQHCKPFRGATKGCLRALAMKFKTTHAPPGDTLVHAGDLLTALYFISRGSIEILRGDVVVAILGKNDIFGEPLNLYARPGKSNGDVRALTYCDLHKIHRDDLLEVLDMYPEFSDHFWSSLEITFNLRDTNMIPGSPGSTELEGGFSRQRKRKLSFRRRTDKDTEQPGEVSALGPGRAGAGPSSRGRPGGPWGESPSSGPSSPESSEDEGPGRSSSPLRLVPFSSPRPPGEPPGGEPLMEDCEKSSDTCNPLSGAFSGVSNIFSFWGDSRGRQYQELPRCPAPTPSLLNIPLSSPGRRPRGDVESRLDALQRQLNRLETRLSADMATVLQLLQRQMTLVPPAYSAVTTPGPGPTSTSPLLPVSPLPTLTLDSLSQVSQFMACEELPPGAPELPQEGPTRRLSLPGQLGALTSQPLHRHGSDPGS
Out of some 310,000 compounds screened, about 14,000 (4.5%) showed an effect of 50% or more. The effect is printed as a negative number. Shown is part of a subset that was picked to be rich in strong results.
Parameter: hERG current change (%, negative = inhibition) at 10uM. Scope: all listed entries.
Hi, when you answer, please include the unit after the number. Thanks!

Below, 5 compounds whose answers are already recorded.
Compound | System Tested | Result
COc1ccc(Nc2ccnc3ccccc23)cc1.Cl | human ether-à-go-go-related gene (hERG) potassium channel (human, UniProt Q12809) | -33.8%
CC(C)CCN1CCN(Cc2cccc3nonc23)CC1CCO (stereo not drawn) | human ether-à-go-go-related gene (hERG) potassium channel (human, UniProt Q12809) | -16.7%
O=C(Cc1ccccc1[N+](=O)[O-])Nc1ccc2c(c1)OCO2 | human ether-à-go-go-related gene (hERG) potassium channel (human, UniProt Q12809) | -40.1%
O=C(CNc1cccc(S(=O)(=O)N2CCCC2)c1)Nc1cccc(Br)c1 | human ether-à-go-go-related gene (hERG) potassium channel (human, UniProt Q12809) | -18.5%
CCOc1ccc(CN2CCN(Cc3cccc4nonc34)CC2CCO)cc1 (stereo not drawn) | human ether-à-go-go-related gene (hERG) potassium channel (human, UniProt Q12809) | -77.1%

Okay, now this compound:
Problem: Supply measured hERG current change (%, negative = inhibition) at 10uM of Cc1ccc(-c2c[n+](Cc3ccc(Cl)c(Cl)c3)c3n2CCC3)cc1.[Cl-] in your reply.
Solution: -68.9%
